Target: truncated form of human Choline kinase α1 that includes residues 75-457 (Homo sapiens)
Construct: made in house
Sequence (P35790 75-457): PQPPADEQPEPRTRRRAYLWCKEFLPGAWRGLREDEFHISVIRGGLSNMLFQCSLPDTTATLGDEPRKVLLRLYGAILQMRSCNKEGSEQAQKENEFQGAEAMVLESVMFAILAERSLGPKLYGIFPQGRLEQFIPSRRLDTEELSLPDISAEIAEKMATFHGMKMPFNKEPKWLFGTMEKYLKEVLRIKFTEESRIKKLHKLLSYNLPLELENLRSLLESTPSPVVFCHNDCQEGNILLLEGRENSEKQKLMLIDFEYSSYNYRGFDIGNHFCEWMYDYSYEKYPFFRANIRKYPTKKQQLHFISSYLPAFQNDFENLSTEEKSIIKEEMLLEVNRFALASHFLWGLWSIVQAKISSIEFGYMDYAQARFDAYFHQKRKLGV
Assay: Kinase Assay, coupled (ATP regeneration) LDH/PK assay, NADH absorbance
Assay type: biochemical
Conditions: Examples not designated with an asterisk; footnote prints version 1 of the Kinase Assay; read-out: IC50
Procedure: Absorbance of NADH (340 nm) was measured over 30 min using a SpectraMax M5 (Molecular Devices). Initial reaction velocity (ΔA340/Δt) was calculated and plotted as a function of inhibitor concentration in a 2-fold dilution series. IC50 values were obtained by fitting the relative velocities to a dose-response model.
MEASUREMENT LABEL: IC50

State measured IC50 of the compound CN1CCCN(Cc2ccc(-c3ccc(N)c([N+](=O)[O-])c3)c(C#N)c2)CC1 with truncated form of human Choline kinase α1 that includes residues 75-457 (Homo sapiens).
< 0.5 µM

Give IC50 for this entry on truncated form of human Choline kinase α1 that includes residues 75-457 (Homo sapiens): CN1CCCN(Cc2ccc(-c3ccc(C(N)=O)cc3)c(C#N)c2)CC1
< 0.5 µM

Give reported IC50 for CN1CCCN(Cc2ccc(-c3ccc(S(C)(=O)=O)cc3)c(C#N)c2)CC1 (truncated form of human Choline kinase α1 that includes residues 75-457 (Homo sapiens))
< 0.2 µM

Fill in IC50 for CN1CCCN(Cc2ccc(-c3ccc(C(=O)N4CCN(CCO)CC4)cc3)c(C#N)c2)CC1 tested with truncated form of human Choline kinase α1 that includes residues 75-457 (Homo sapiens).
< 0.5 µM

Under truncated form of human Choline kinase α1 that includes residues 75-457 (Homo sapiens), report IC50 for CN1CCCN(Cc2ccc(-c3ccc(CN4CCCN(C)CC4)cc3C#N)c(C#N)c2)CC1
< 0.1 µM

Please respond with reported IC50 (system truncated form of human Choline kinase α1 that includes residues 75-457 (Homo sapiens)) for CN1CCCN(Cc2ccc(-c3ccc(S(=O)(=O)N4CCN(C)CC4)cc3)c(C#N)c2)CC1 .
< 0.1 µM

Lab note: record IC50 of CN1CCCN(Cc2ccc(-c3ccc(CC#N)cc3)c(C#N)c2)CC1 tested on truncated form of human Choline kinase α1 that includes residues 75-457 (Homo sapiens).
< 0.2 µM

Identify measured IC50 obtained with truncated form of human Choline kinase α1 that includes residues 75-457 (Homo sapiens) for CN1CCCN(Cc2ccc(-c3ccc(C(=O)N(C)CCO)cc3)c(C#N)c2)CC1 .
< 0.5 µM

Write IC50 of CC(=O)Nc1cc(-c2ccc(CN3CCCN(C)CC3)cc2C#N)ccc1[N+](=O)[O-] ; system used: truncated form of human Choline kinase α1 that includes residues 75-457 (Homo sapiens)
< 0.5 µM
